// binding signal lookup, one value per entry
assayed target: T1, RBFOX1 RRM (Homo sapiens, UniProt Q9NWB1 109-208)
T1 sequence: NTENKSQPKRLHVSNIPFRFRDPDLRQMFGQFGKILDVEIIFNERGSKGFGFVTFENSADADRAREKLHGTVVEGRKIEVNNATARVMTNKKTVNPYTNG
assay: EMSA; HiTS-Eq, 1 nM pool, 10 min; buffer printed only for the single-RNA assays: 10 mM Tris pH 7.5, 150 mM NaCl, 3.4 mM EDTA, 0.001% NP-40, 30 C
condition info: tags: His6 N-terminal (pET28a); label: 5' 32P
The full ranking holds about 16,000 sequences; the median of “ka relative to ugcaugu” is about 0.0091, and the highest 2% start at about 0.032. The sample as a whole holds a higher share of the highest values than the screen did.

Look over these answered cases.
# binder, attribute measured, endpoint value
records = [
    ("CGGCUUU (DNA:RNA) RNA: GGGAGACCGGAAUUCAGAUUGUCCCGGCUUUUUAAAUCCCGUCGUAGCCACCA DNA 1: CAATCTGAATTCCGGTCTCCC DNA 2: TGGTGGCTACGACGGGATT", "binding signal", "0.0187 KA relative to UGCAUGU"),
    ("CCGGGCU (DNA:RNA) RNA: GGGAGACCGGAAUUCAGAUUGUCCCCGGGCUUUAAAUCCCGUCGUAGCCACCA DNA 1: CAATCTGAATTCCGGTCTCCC DNA 2: TGGTGGCTACGACGGGATT", "binding signal", "0.00883 KA relative to UGCAUGU"),
    ("GGGCUUU (DNA:RNA) RNA: GGGAGACCGGAAUUCAGAUUGUCCGGGCUUUUUAAAUCCCGUCGUAGCCACCA DNA 1: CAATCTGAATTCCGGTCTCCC DNA 2: TGGTGGCTACGACGGGATT", "binding signal", "0.0244 KA relative to UGCAUGU"),
]

Consider now this further binder.
Per the records, this binder ( GGGGCUU (DNA:RNA) RNA: GGGAGACCGGAAUUCAGAUUGUCCGGGGCUUUUAAAUCCCGUCGUAGCCACCA DNA 1: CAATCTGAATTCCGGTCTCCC DNA 2: TGGTGGCTACGACGGGATT ) has binding signal equal to 0.033 KA relative to UGCAUGU
